# System: Aerobactin synthetase IucA (Klebsiella pneumoniae hvKP1)
# test_details: Biochemical IucA enzyme inhibition primary screen of the Spectrum library (AID 1346200);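 further: 100% = wells without compound and 0% = wells lacking enzyme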
# settings: malachite green pyrophosphate, A620, at 8 µM, active compounds read low

molecule	measurement_unit	activity remaining
CNNC	%	86.5
COc1ccc(Cc2nccc3cc(OC)c(OC)cc23)cc1OC	%	114
C[C@]12CCC3C(CC[C@]4(O)C[C@@H](O)CC[C@]34C=O)[C@@]1(O)CCC2C1=CC(=O)OC1 (stereo partly specified)	%	79.3
Oc1cc2c(cc1O)C1c3ccc(O)c(O)c3OCC1(O)C2 (stereo unspecified)	%	109
COc1ccc2c(=O)ccoc2c1	%	120
C=CCS(=O)C[C@H](N)C(=O)O (stereo partly specified)	%	125
OCc1ccccc1O[C@@H]1O[C@H](CO)[C@@H](O)[C@H](O)[C@H]1O	%	101
CNCCC(Oc1ccc(C(F)(F)F)cc1)c1ccccc1 (stereo unspecified)	%	96.1
C=Cc1c(C)/c2[n-]/c1=C\c1[n-]c(c(CC)c1C)/C=c1\[n-]c3c(c1C)C(=O)C(C(=O)[O-])C=3c1[n-]c(c(C)c1CCC(=O)[O-])\C=2.[Cu].[Na+].[Na+] (stereo unspecified)	%	77.9
COc1ccc(C[C@H](N)C(=O)N[C@@H]2[C@@H](CO)OC(n3cnc4c(N(C)C)ncnc43)[C@@H]2O)cc1 (stereo partly specified)	%	87.5
CC1(C)O[C@@H]2CC3C4C[C@H](F)C5=CC(=O)C=C[C@]5(C)[C@@]4(F)[C@@H](O)C[C@]3(C)[C@]2(C(=O)CO)O1 (stereo partly specified)	%	99.1
CC1(C)CC[C@]2(C(=O)O)CC[C@]3(C)C(=CCC4[C@@]5(C)CC[C@@H](O)C(C)(C)C5CC[C@]43C)C2C1 (stereo partly specified)	%	118
C[C@]12CCC(=O)C=C1CCC1C2C(=O)C[C@@]2(C)C1CC[C@]2(O)C(=O)CO (stereo partly specified)	%	111
Nc1ccc(C(=O)O)cc1	%	124
CC(=O)OC1CCC2(C)C(=CC=C3C2CCC2(C)C3CCC2C(C)/C=C/C(C)C(C)C)C1(C)C (stereo unspecified)	%	125
COC(=O)CC1C(C)(C)C(OC(C)=O)[C@@H]2[C@@H](OC(C)=O)[C@]34O[C@@]2(O)[C@]1(C)C3CC[C@]1(C)C4=CC(=O)O[C@H]1c1ccoc1 (stereo partly specified)	%	124
CC1(C)O[C@H]2[C@H](O)C[C@](O)(C(N)=O)C[C@H]2O1	%	109
C=CCc1ccccc1OCC(O)CNC(C)C (stereo unspecified)	%	110
CC(C[N+](C)(C)C)OC(N)=O (stereo unspecified)	%	116
C[C@@H]1C[C@@H]([C@H](O)CC2CC(=O)NC(=O)C2)C(=O)[C@@H](C)C1	%	112
COc1ccc(-c2coc3cc(O)ccc3c2=O)cc1	%	109
